biological target: Gonadotropin-releasing hormone receptor (Rattus norvegicus) (UniProt P30969); test: Antagonist activity at LH-RH receptor in Sprague-Dawley rat pituitary gland assessed as change in LH-RH-induced luteinizing hormone release at 100 ug/ml preincubated for 2 hrs followed by LH-RH addition at 5th and 6th hr 5 mins post drug addition and measured every hour for 4 hrs by RIA
Sequence (P30969 whole entry): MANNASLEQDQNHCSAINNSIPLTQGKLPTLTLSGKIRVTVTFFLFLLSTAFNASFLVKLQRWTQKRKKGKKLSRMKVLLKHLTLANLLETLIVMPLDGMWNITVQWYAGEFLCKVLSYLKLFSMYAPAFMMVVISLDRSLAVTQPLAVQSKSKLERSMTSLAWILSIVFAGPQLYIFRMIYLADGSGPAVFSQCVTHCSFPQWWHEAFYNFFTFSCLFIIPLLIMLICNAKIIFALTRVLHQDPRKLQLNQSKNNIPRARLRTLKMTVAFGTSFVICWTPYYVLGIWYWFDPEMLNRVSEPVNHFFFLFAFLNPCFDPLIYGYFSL
Square brackets hold non-standard residues; d marks the D form. Peptide text beside a SMILES is read from it. pGlu = O=C1CC[C@@H](C(=O)O)N1
ASSAY_METRIC: Activity (ng/mL)

CC(C)C[C@H](NC(=O)CNC(=O)[C@H](Cc1ccc(O)cc1)NC(=O)[C@H](CO)NC(=O)[C@H](CO)NC(=O)[C@H](CC(C)C)NC(=O)[C@@H]1CCC(=O)N1)C(=O)N[C@@H](CCCNC(=N)N)C(=O)N1CCC[C@H]1C(=O)NCC(N)=O ([pGlu]LSSYGLRPG-NH2) :: 90

[P] CCNC(=O)[C@@H]1CCCN1C(=O)[C@H](CCCNC(=N)N)NC(=O)[C@H](CC(C)C)NC(=O)[C@@H](C)NC(=O)[C@H](Cc1ccc(O)cc1)NC(=O)[C@H](CO)NC(=O)[C@H](C)NC(=O)[C@H](CC)NC(=O)[C@@H]1CCC(=O)N1
[Q] CC(C)C[C@H](NC(=O)CNC(=O)[C@H](Cc1ccc(O)cc1)NC(=O)[C@H](CO)NC(=O)[C@H](CC(N)=O)NC(=O)[C@H](CC(C)C)NC(=O)[C@@H]1CCC(=O)N1)C(=O)N[C@@H](CCCNC(=N)N)C(=O)N1CCC[C@H]1C(=O)NCC(N)=O ([pGlu]LNSYGLRPG-NH2)
[R] CC(C)C[C@H](NC(=O)[C@@H]1CCC(=O)N1)C(=O)N[C@@H](C)C(=O)N[C@@H](CO)C(=O)N[C@@H](Cc1ccc(O)cc1)C(=O)N[C@H](C)C(=O)N[C@@H](CC(C)C)C(=O)N[C@@H](CCCNC(=N)N)C(=O)N1CCC[C@H]1C(=O)NCC(N)=O
Task item: Place the items in sequence of falling Activity. Form field (ranking): labels in requested order.
Reply: Q, R, P
(Q: 185 ng/mL, R: 115 ng/mL, P: 62 ng/mL)
